Origin of values: patent US12599672B2

# tested-target: KRAS (Homo sapiens, UniProt P01116)
# Construct: endogenous in cells; host or cells: KE39 (KRAS amplified) cells
# Sequence (P01116 1-188 isoform P01116-2): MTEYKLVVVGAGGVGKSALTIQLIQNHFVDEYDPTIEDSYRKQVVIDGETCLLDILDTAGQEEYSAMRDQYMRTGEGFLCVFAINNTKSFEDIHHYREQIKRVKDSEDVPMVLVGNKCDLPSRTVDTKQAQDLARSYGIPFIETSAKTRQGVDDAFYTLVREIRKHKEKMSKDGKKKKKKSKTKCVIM
# method-summary: KRASamp MSD assay
# Format: cell-based
# assay-conditions: KE39 (KRAS amplified) cells, treated with test compounds for 24 hr, MSD readout of KRAS degradation
# Method: KE39 (KRAS amplified) cells were cultured in RPMI 1640 medium (Gibco, 11875093), seeded into 96 well plate and treated with test compounds for 24 hr. […] 2×MSD reading buffer was added into individual wells and the plate was finally read by MSD reader (MSD, SQ 120 MM). The recombinant WT KRAS protein was used for standard curve generation and protein quantification. The degradation activity was calculated using the following formula: […]
The reader will find reported DC50 values listed item by item below.

Use these answered entries as a reference point.
1) CCc1c(F)ccc2cc(O)cc(-c3ncc4c(N5CCC[C@@](C)(O)C5)nc(OC[C@]56CCCN5[C@H](COC(=O)N5CCC(c7cccc8c7n(C)c(=O)n8C7CCC(=O)NC7=O)CC5)CC6)nc4c3F)c12 (stereo partly drawn) : 1 to 10 nM
2) C#Cc1c(F)ccc2cc(O)cc(-c3ncc4c(N5CCCCC5)nc(OC[C@@]56CCCN5[C@H](COC(=O)N5CCC(CN7CCC(c8ccc9c(c8)n(C)c(=O)n9C8CCC(=O)NC8=O)CC7)CC5)CC6)nc4c3F)c12 (stereo partly drawn) : < 1 nM
3) CCc1c(F)ccc2cc(O)cc(-c3ncc4c(N5CCC[C@@](C)(O)C5)nc(OC[C@@]56CCCN5[C@@H](COC(=O)N5CCC(CCCOc7ccc8c(c7)n(C)c(=O)n8C7CCC(=O)NC7=O)CC5)CC6)nc4c3F)c12 (stereo partly drawn) : ≥ 10 nM

IN: Report DC50 for C#Cc1c(F)ccc2cc(O)cc(-c3ncc4c(N5CCC[C@@](C)(O)C5)nc(OC[C@@]56CCCN5[C@H](COC(=O)N5CCC(CC#Cc7cccc8c7n(C)c(=O)n8C7CCC(=O)NC7=O)CC5)CC6)nc4c3F)c12 (stereo partly drawn) please.
OUT: 1 to 10 nM

IN: Same for CCc1c(F)ccc2cc(O)cc(-c3ncc4c(N5CCC[C@@](C)(O)C5)nc(OC[C@@]56CCCN5[C@H](COC(=O)N5C7CCC5CC(CN5CCC(c8ccc9c(c8)n(C)c(=O)n9C8CCC(=O)NC8=O)CC5)C7)CC6)nc4c3F)c12 (stereo partly drawn)
OUT: < 1 nM

IN: Same for C#Cc1c(F)ccc2cc(O)cc(-c3ncc4c(N5CCC[C@@](C)(O)C5)nc(OC[C@]56CCCN5[C@H](COC(=O)N5CCC(CN7CCC(c8ccc9c(c8)n(C)c(=O)n9C8CCC(=O)NC8=O)CC7)CC5)CC6)nc4c3F)c12 (stereo partly drawn)
OUT: < 1 nM

IN: Same for CCc1c(F)ccc2cc(O)cc(-c3ncc4c(N5CCC[C@@](C)(O)C5)nc(OC[C@@]56CCCN5[C@H](COC(=O)N5CCC(OCCC#Cc7cccc8c7n(C)c(=O)n8C7CCC(=O)NC7=O)CC5)CC6)nc4c3F)c12 (stereo partly drawn)
OUT: 1 to 10 nM

IN: Same for CCc1c(F)ccc2cc(O)cc(-c3ncc4c(N5CCCOCC5)nc(OC[C@]56CCCN5[C@H](COC(=O)N5CCC(CN7CCC(c8ccc9c(c8)n(C)c(=O)n9C8CCC(=O)NC8=O)CC7)CC5)CC6)nc4c3F)c12 (stereo partly drawn)
OUT: < 1 nM

IN: Same for C#Cc1c(F)ccc2cc(O)cc(-c3ncc4c(N5CCC[C@@](C)(O)C5)nc(OC[C@@]56CCCN5[C@@H](COC(=O)N5CCC(CN7CCC(c8ccc9c(c8)n(C)c(=O)n9C8CCC(=O)NC8=O)CC7)CC5)CC6)nc4c3F)c12 (stereo partly drawn)
OUT: < 1 nM

* * *

# tested-target: KRAS G12D (Homo sapiens, UniProt P01116, G12D)
# Construct: AsPc-1-KRAS (G12D)-HiBit-KI cell (Pharmaron); host or cells: AsPc-1-KRAS (G12D)-HiBit-KI cells (HiBiT knock-in at the endogenous KRAS locus)
# Sequence (P01116 1-188 isoform P01116-2 G12D): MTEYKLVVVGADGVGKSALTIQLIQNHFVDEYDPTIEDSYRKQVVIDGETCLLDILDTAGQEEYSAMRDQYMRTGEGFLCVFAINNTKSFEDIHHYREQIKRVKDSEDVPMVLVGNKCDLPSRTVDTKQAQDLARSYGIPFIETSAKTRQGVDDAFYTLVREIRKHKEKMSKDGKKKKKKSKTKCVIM
# method-summary: KRAS G12D HiBit assay
# Type: cell-based
# assay-conditions: AsPc-1-KRAS (G12D)-HiBit-KI cell, compound treatment for 24 hours, absolute DC50; class symbols
recorded-endpoint: DC50

1. CCc1c(F)ccc2cc(O)cc(-c3ncc4c(N5CCCOCC5)nc(OC[C@@]56CCCN5[C@H](COC(=O)N5CCC(CN7CCC(c8ccc9c(c8)n(C)c(=O)n9C8CCC(=O)NC8=O)CC7)CC5)CC6)nc4c3F)c12 (some centres unmarked) : < 100 nM

Alright, here's another compound for you.
IN: Report DC50 for C#Cc1c(F)ccc2cc(O)cc(-c3ncc4c(N5CCC[C@@](C)(O)C5)nc(OCC5(CN6CCC7(CC6)CC(N6CCC(c8cccc9c8n(C)c(=O)n9C8CCC(=O)NC8=O)CC6)C7)CC5)nc4c3F)c12 (some centres unmarked) please.
OUT: < 100 nM

* * *

# tested-target: KRAS (Homo sapiens)
# Construct: endogenous in cells; host or cells: KE39 (KRAS amplified) cells
# method-summary: KRASamp MSD assay
# Assay type: cell-based
# assay-conditions: KE39 (KRAS amplified) cells, treated with test compounds for 24 hr, MSD readout of KRAS degradation
# Method: KE39 (KRAS amplified) cells were cultured in RPMI 1640 medium (Gibco, 11875093), seeded into 96 well plate and treated with test compounds for 24 hr. […] 2×MSD reading buffer was added into individual wells and the plate was finally read by MSD reader (MSD, SQ 120 MM). The recombinant WT KRAS protein was used for standard curve generation and protein quantification. The degradation activity was calculated using the following formula: […]
recorded-endpoint: DC50

1. C#Cc1c(F)ccc2cc(O)cc(-c3ncc4c(N5CCC[C@@](C)(O)C5)nc(OC[C@@]56CCCN5[C@H](COC(=O)NC5CCN(C7CCN(c8ccc9c(c8)n(C)c(=O)n9C8CCC(=O)NC8=O)CC7)CC5)CC6)nc4c3F)c12 (some centres unmarked) [Compound 324] : ≥ 10 nM
2. CCc1c(F)ccc2cc(O)cc(-c3ncc4c(N5CCC[C@@](C)(O)C5)nc(OC[C@@]56CCCN5[C@H](COC(=O)N5CC7(CC(N8CCC(c9ccc%10c(c9)n(C)c(=O)n%10C9CCC(=O)NC9=O)CC8)C7)C5)CC6)nc4c3F)c12 (some centres unmarked) [Compound 416] : < 1 nM
3. CCc1c(F)ccc2cc(O)cc(-c3ncc4c(N5CCC[C@@](C)(O)C5)nc(OC[C@]56CCCN5[C@H](COC(=O)NC5CCCN(c7cccc8c7n(C)c(=O)n8C7CCC(=O)NC7=O)C5)CC6)nc4c3F)c12 (some centres unmarked) [Compound 312] : ≥ 10 nM
4. C#Cc1c(F)ccc2cc(O)cc(-c3ncc4c(N5CCC[C@@](C)(O)C5)nc(OCC5(CN6CCC7(CC6)CC(N6CCC(c8cccc9c8n(C)c(=O)n9C8CCC(=O)NC8=O)CC6)C7)CC5)nc4c3F)c12 (some centres unmarked) [Compound 64] : < 1 nM
5. CCc1c(F)ccc2cc(O)cc(-c3ncc4c(N5CCC[C@](C)(O)C5)nc(OC[C@]56CCCN5[C@@H](COC(=O)N5CC7CCC(C5)C7CN5CCC(c7ccc8c(c7)n(C)c(=O)n8C7CCC(=O)NC7=O)CC5)CC6)nc4c3F)c12 (some centres unmarked) [Compound 391] : < 1 nM
6. C#Cc1c(F)ccc2cc(O)cc(-c3ncc4c(N5CCC[C@@](C)(O)C5)nc(OC[C@@]56CCCN5[C@H](COC(=O)N5CC7(CC(N8CCC(c9ccc%10c(c9)n(C)c(=O)n%10C9CCC(=O)NC9=O)CC8)C7)C5)CC6)nc4c3F)c12 (some centres unmarked) [Compound 419] : < 1 nM
7. CCc1c(F)ccc2cc(O)cc(-c3ncc4c(N5CCC[C@@](C)(O)C5)nc(OC[C@@]56CCCN5[C@H](COC(=O)N5CCC(F)(CN7CCC(c8ccc9c(c8)n(C)c(=O)n9C8CCC(=O)NC8=O)CC7)CC5)CC6)nc4c3F)c12 (some centres unmarked) [Compound 156] : < 1 nM

Alright, here's another compound for you.
IN: Report DC50 for CCc1c(F)ccc2cc(O)cc(-c3ncc4c(N5CCC[C@@](C)(O)C5)nc(OC[C@@]56CCCN5[C@H](COC(=O)N5CCC(CN7CCC(c8ccc9c(c8)n(C)c(=O)n9C8CCC(=O)NC8=O)CC7)C5)CC6)nc4c3F)c12 (some centres unmarked) [Compound 433] please.
OUT: 1 to 10 nM

* * *

# tested-target: KRAS (Homo sapiens, UniProt P01116)
# Construct: endogenous in cells; host or cells: KE39 (KRAS amplified) cells
# method-summary: KRASamp MSD assay
# Type: cell-based
# assay-conditions: KE39 (KRAS amplified) cells, treated with test compounds for 24 hr, MSD readout of KRAS degradation
The reader will find reported DC50 values listed item by item below.

Use these answered entries as a reference point.
1. C#Cc1c(F)ccc2cc(O)cc(-c3ncc4c(N5CCC[C@@](C)(O)C5)nc(OCC5(CN6CCC7(CC6)CC(N6CCC(c8cccc9c(C%10CCC(=O)NC%10=O)nn(C)c89)CC6)C7)CC5)nc4c3F)c12 (stereo partly shown) : < 1 nM
2. CCc1c(F)ccc2cc(O)cc(-c3ncc4c(N5CCC[C@@](C)(N)C5)nc(OC[C@@]56CCCN5[C@H](COC(=O)N5CCC7(CC5)CC(N5CCC(c8ccc9c(c8)n(C)c(=O)n9C8CCC(=O)NC8=O)CC5)C7)CC6)nc4c3F)c12 (stereo partly shown) : ≥ 10 nM
3. C#Cc1c(F)ccc2cc(O)cc(-c3ncc4c(N5CCC[C@@](C)(O)C5)nc(OC[C@@]56CCCN5[C@H](COC(=O)N5CCCC7(C5)CN(C5CCN(c8ccc9c(c8)n(C)c(=O)n9C8CCC(=O)NC8=O)CC5)C7)CC6)nc4c3F)c12 (stereo partly shown) : ≥ 10 nM

Alright, here's another compound for you.
IN: Reported DC50 for KRAS (Homo sapiens, UniProt P01116), given CCc1c(F)ccc2cc(O)cc(-c3ncc4c(N5CCCC(F)(F)C5)nc(OC[C@@]56CCCN5[C@H](COC(=O)N5CC7(CC(N8CCC(c9ccc%10c(c9)n(C)c(=O)n%10C9CCC(=O)NC9=O)CC8)C7)C5)CC6)nc4c3F)c12 (stereo partly shown) ?
OUT: < 1 nM
